Data provenance: ChEMBL document CHEMBL4038268

Form field: IC50 (one value per entry).
- experimental target: Transcription intermediary factor 1-alpha (Homo sapiens)
- Sequence (O15164 whole entry, the tested form may be a part): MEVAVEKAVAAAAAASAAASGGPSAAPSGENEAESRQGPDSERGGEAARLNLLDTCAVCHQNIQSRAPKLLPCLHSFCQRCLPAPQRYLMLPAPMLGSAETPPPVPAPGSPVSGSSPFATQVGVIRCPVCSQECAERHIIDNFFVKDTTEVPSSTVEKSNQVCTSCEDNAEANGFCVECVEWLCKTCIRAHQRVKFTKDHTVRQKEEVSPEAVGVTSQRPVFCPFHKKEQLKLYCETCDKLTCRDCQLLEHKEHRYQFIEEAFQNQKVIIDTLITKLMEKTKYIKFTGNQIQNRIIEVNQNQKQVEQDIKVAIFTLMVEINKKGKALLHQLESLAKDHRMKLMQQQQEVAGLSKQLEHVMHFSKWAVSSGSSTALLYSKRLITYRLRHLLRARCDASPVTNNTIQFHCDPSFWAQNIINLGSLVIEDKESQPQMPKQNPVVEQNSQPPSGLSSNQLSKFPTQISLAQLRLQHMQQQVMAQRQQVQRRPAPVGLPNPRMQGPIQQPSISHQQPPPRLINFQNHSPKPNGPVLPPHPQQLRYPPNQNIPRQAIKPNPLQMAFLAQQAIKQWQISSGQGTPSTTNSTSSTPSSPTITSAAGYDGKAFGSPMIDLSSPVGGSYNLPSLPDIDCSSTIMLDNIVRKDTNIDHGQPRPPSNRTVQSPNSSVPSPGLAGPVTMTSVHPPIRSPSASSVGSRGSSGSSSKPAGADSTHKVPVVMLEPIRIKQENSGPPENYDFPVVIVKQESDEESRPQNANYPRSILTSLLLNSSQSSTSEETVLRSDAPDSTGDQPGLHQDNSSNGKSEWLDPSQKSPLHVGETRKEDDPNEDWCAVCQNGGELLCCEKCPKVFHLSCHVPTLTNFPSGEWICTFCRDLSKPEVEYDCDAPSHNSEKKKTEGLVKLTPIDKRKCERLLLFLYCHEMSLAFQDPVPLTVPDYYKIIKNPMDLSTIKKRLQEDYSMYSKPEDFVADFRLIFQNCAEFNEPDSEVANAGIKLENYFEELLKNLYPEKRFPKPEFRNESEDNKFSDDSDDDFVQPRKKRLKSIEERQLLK
- protocol summary: Inhibition of human TRIM24-phd-bromo (P790 to P977 residues) expressed in bacterial expression system by BROMOscan assay

Examples from the recorded data:
>>> result("Cc1[nH]c(-c2cc(S(C)(=O)=O)ccc2Oc2ccc(F)cc2F)c2c1C(=O)NCC2")
"> 10 µM"
>>> result("Cc1[nH]c(-c2cc(NS(C)(=O)=O)ccc2Oc2ccccc2)c2c1C(=O)CCC2")
"> 10 µM"

Moving on to the next molecule.
Challenge: Give the measured IC50 of Cn1cc(-c2cc(S(C)(=O)=O)ccc2Oc2ccc(F)cc2F)c2cc[nH]c(=O)c21 .
Response given: 10 µM

* * *

- experimental target: Transcription initiation factor TFIID subunit 1-like (Homo sapiens)
- Sequence (Q8IZX4 whole entry, the tested form may be a part): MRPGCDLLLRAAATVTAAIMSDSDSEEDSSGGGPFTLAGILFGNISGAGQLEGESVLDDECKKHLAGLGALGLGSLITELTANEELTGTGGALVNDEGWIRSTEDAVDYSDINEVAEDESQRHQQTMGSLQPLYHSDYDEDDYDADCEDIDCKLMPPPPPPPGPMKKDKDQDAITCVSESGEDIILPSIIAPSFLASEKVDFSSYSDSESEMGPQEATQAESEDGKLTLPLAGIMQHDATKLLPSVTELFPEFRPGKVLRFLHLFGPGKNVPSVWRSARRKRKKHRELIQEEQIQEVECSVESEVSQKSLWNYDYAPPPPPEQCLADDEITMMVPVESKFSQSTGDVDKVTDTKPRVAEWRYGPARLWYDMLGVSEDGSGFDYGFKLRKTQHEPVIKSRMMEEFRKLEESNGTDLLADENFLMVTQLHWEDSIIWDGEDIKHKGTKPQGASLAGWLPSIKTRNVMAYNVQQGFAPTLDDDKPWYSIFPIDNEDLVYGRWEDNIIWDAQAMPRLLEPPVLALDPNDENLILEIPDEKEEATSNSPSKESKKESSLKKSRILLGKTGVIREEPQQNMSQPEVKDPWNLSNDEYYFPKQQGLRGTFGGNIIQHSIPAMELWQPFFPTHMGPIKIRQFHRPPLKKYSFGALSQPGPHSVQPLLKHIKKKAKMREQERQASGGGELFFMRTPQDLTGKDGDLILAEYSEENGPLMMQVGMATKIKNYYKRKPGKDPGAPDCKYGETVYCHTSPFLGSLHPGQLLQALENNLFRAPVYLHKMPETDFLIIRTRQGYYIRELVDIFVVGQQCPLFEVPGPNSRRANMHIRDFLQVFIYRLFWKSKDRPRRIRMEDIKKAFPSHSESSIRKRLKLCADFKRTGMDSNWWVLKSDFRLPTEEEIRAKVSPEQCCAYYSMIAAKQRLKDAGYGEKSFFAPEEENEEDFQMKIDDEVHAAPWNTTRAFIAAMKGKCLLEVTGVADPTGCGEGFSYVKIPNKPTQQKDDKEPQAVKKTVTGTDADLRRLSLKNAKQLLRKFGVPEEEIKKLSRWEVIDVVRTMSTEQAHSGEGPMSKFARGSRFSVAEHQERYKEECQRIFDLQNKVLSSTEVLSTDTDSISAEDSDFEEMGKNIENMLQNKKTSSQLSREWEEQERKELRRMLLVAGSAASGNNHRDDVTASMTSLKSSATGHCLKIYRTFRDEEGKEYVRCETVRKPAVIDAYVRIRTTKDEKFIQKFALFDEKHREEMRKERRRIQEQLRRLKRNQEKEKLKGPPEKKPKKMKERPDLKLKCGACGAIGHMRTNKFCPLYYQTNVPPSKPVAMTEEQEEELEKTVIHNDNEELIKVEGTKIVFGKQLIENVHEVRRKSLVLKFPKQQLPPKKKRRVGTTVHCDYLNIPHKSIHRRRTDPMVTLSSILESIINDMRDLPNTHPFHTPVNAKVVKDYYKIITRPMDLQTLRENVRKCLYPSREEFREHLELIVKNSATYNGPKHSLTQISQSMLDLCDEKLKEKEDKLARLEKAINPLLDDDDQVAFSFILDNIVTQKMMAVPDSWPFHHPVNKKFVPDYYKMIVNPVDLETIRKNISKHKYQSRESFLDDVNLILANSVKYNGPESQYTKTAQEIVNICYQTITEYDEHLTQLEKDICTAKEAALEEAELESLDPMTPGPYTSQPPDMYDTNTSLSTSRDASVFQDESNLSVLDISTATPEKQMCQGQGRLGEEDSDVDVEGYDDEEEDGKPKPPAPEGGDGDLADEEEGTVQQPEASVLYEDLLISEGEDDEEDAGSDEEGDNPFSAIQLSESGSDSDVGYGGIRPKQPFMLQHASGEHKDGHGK
- protocol summary: Inhibition of human TAF1L (Q1523 to D1654 residues) expressed in bacterial expression system by BROMOscan assay
property name: IC50

>>> result("Cc1[nH]c(-c2cc(NS(C)(=O)=O)ccc2Oc2ccccc2)c2c1C(=O)CCC2")
"> 1000 nM"

Challenge: Any idea what IC50 was measured for Cn1cc(-c2cc(S(C)(=O)=O)ccc2Oc2ccc(F)cc2F)c2cc[nH]c(=O)c21 ?
Response given: > 1000 nM

* * *

- protocol summary: Permeability of the compound
- Format: physicochemical
- conditions: not told; read-out: permeability
property name: Papp (×10⁻⁶ cm/s)
Value expressed in ×10⁻⁶ cm/s; do not type the unit.

Challenge: Param item = Cc1[nH]c(-c2cc(NS(C)(=O)=O)ccc2Oc2ccccc2)c2c1C(=O)CCC2 ; retrieve measured Papp.
Response given: 27

Challenge: Papp lookup needed for Cc1[nH]c(-c2cc(NS(C)(=O)=O)ccc2Oc2ccc(F)cc2F)c2cn[nH]c(=O)c12 , thanks.
Response given: 6.1

Challenge: What does the record list as Papp for CCS(=O)(=O)Nc1ccc(Oc2ccccc2)c(-c2[nH]c(C)c3c(=O)[nH]ncc23)c1 ?
Response given: 9.5

* * *

- experimental target: Bromodomain-containing protein 4 (Homo sapiens)
- protocol summary: Inhibition of BRD4 (unknown origin) expressed in human H1299 cells co-expressing HPV16-LCR/E2 after 24 hrs by Bright Glo-luciferase reporter gene assay
Mark each entry Criterion met if its EC50 sits below 300 nM, and Criterion not met for all others.

Solved entries (count: 5):
>>> qualitative_label("Cc1[nH]c(-c2cc(S(C)(=O)=O)ccc2Oc2ccc(F)cc2F)c2c1C(=O)CCC2")
"Criterion not met"
>>> qualitative_label("Cc1[nH]c(-c2cc(S(C)(=O)=O)ccc2Oc2ccc(F)cc2F)c2cn[nH]c(=O)c12")
"Criterion not met"
>>> qualitative_label("Cc1[nH]c(-c2cc(NS(C)(=O)=O)ccc2Oc2ccccc2)c2cn[nH]c(=O)c12")
"Criterion met"
>>> qualitative_label("Cc1[nH]c(-c2cc(NS(C)(=O)=O)ccc2Oc2ccc(F)cc2F)c2cn[nH]c(=O)c12")
"Criterion met"
>>> qualitative_label("Cc1[nH]c(-c2cc(NS(C)(=O)=O)ccc2Oc2ccccc2)c2c1C(=O)CCC2")
"Criterion met"

Challenge: Field: below-cutoff. Rule: recorded EC50 strictly less than 300 nM. Subject: Cc1[nH]c(-c2ccccc2Oc2ccccc2)c2cn[nH]c(=O)c12
Response given: Criterion met

Challenge: Hi there! Is EC50 for Cc1[nH]c(-c2ccccc2Oc2ccc(Cl)cc2)cc1C(N)=O below 300 nM, do you know?
Response given: Criterion met

Challenge: Is EC50 of Cc1[nH]c(-c2ccccc2Oc2ccccc2)cc1C(N)=O strictly below 300 nM?
Response given: Criterion not met

Challenge: Field: below-cutoff. Rule: recorded EC50 strictly less than 300 nM. Subject: CCS(=O)(=O)Nc1ccc(Oc2ccc(F)cc2)c(-c2cn(C)c3c(=O)[nH]ccc23)c1
Response given: Criterion met
